molecular target: T1, human Claudin18.2 (CLDN18.2) (human, UniProt P56856 1-261); test: FACS on CHOK1-18.2 cells, antibody at 50 µg/ml
T1 construct: the cell line is named under assay; also called human Claudine18.2; hClaudin18.2
For each record, write down the corresponding MAX MFI.
Write no unit; give the number alone.

Problem: For chAb18 (antibody, V domains shown) VH: QVQLKESGPGLVAPSQSLSITCTVSGFSLTTYGINWVRQPPGKGLEWLGVIWGDGSTNYHSALISRLSISKDNSKSQVFLKLNSLQTDDTATYYCVKSSYYGNAMDYWGQGTSVTVSS VL: DIVMTQSPSSLTVTAGETVTMSCKSSQSLLNSGNQKNYLTWYQQKPGQPPKLLIYWASTRESGVPDRFTGSGSGTDFTLTISSVQAEDLAVYYCQNVYSYPFTFGSGTKLEI , write its MAX MFI.
Solution: 60200

Problem: For chAb06 (antibody, V domains shown) VH: EVQLVASGGGLVKPGGSLKLSCAASGITFRSYAMSWVRQTPEKRLEWVATITDGGSYIFYPDNVKGRFTISGDHAKNNLYLQMSHLKSEDTALYFCVRLYYGNSFAYWGQGTLVTVSA VL: DIVMTQSPSSLTVTAGEKVTLNCKSSQSLFNSGNQKNYLTWYQQKPGQPPKLLIYWASTRESGVPDRFTGSGSGTDFTLTFSSVQAEDLAVYYCQNAYIYPFTFGSGTKLEIK , write its MAX MFI.
Solution: 92800

Problem: For chAb24 (antibody, V domains shown) VH: EVKLVESGGGLVKPGGSLKLSCAGSGFTFSSYTMSWVRQTPEKRLEWVATITIGVNIYYLDSVKGRFTISRDNAKNTLYLQMNSLRSEDTALYYCTRLGQTQRNAMDYWGQGTSVTVSS VL: DIVMTQSPTSLSVSAGEKVTMTCKSSQSLFNSGNQKNYLAWYQEKPGQPPKLLIYGASTRESGVPDRFTGSGSGTDFTLTISSVQAEDLAVYYCQNVHFYPFTFGAGTKLEL , write its MAX MFI.
Solution: 64500
